Catalogue of IC50, splenocyte assay, 19 pM hIL-23 readings, one per entry.
- systemUnderTest: recombinant human IL-23 (p19/p40) (human) (UniProt Q9NPF7)
- Sequence (Q9NPF7 20-189 limits assumed, chain 1 of 2): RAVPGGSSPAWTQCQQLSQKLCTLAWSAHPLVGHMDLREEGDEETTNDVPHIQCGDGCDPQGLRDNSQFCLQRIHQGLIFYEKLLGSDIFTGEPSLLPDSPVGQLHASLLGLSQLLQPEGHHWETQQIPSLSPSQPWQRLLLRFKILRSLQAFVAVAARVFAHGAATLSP
- Sequence (P29460 23-328 limits assumed, chain 2 of 2, further chain): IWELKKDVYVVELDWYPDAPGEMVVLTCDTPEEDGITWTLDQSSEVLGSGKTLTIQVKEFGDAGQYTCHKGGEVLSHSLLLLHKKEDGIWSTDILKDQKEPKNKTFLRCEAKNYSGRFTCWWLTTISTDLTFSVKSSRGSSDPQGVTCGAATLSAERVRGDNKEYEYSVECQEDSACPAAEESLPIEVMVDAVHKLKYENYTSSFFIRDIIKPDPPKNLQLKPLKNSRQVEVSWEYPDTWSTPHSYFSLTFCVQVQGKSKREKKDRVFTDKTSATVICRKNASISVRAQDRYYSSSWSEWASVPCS
- experimentalDetails: cell-based or functional assay
// note: answer is a bare numeric in pM

{"binder": "P23IL-121A2-9GS-ALB1-9GS-119G7 (bispecific antibody, part only; not given: anti-albumin Nanobody, part only) chain, part: EVQLVESGGGLVQAGGSLRLSCAASGSIFNFNYMGWFRQAPGKEREFVAAIRWSGSSTYYADSVKGRFTISRDDAKNTVALQMNSLKPEDTAIYYCALRKGIPYSTSDRVIKGVNDYDYWGQGTQVTVSSGGGGSGGGSGGGGSGGGSEVQLVESGGGLVQAGGSLTLSCAVSGLTFNNYAMGWFRQVPGKEREFVAAISRSGLRTFYSDSVKGRFTISRDSAKSTVYVQMNNLKPEDTAVYFCAADRRTYYSEGPSLTDTLRYDYWGQGTQVTVSS", "IC50, splenocyte assay, 19 pM hIL-23 [pM]": 39}

Below: the item to evaluate.
Lookup result for P23IL37D5-15GS-ALB1-15GS-20B11 (bispecific antibody, part only; not given: anti-albumin Nanobody and linkers, not shown: small tags and cut ends) chain, part: EVQLVESGGGLVQPGGSLRLSCAASGFTLDYLAIGWFRQAPGKEREGVSCVSSSGQYTYYADSVKGRFTISRDNAESTVYLQMNSLKPEDTAVYYCATDPECYRVRGYYNGEYDYWGQGTQVTVSSEVQLVESGGGLVQAGGSLRLSCAVSGDTFSVYGMGWFRQAPGMEREFVAGISWNAGITAYTDTLKGRFTISRDRAKNTMYLQMNSLQPEDTAVYYCAADVTRHYIATRSKVDASMYDYWGQGTQVTVSS ; measured IC50, splenocyte assay, 19 pM hIL-23: 5.77
